The entries below are paired with their reported IC50.
- measurement_target: Phospho-N-acetylmuramoyl-pentapeptide-transferase (Bacillus subtilis (strain 168))
- Sequence (Q03521 whole entry): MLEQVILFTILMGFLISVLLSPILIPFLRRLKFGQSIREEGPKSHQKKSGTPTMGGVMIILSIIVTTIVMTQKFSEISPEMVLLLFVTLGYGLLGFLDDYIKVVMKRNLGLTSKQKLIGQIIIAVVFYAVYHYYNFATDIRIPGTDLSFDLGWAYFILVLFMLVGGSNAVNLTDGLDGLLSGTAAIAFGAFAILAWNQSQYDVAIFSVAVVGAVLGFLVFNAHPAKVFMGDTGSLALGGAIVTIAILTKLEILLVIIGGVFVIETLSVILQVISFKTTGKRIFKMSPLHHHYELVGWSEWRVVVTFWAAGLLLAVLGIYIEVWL
- assay_info: Inhibition of Bacillus subtilis MraY after 30 mins using UDP-MurNAc-pentapeptide as substrate
Please state the value followed by its unit.

CCCCCCCCCCCCNC(=O)N[C@H](C(=O)O)[C@H](O[C@@H]1O[C@H](CN)[C@@H](O)[C@H]1O)[C@H]1O[C@@H](n2ccc(=O)[nH]c2=O)[C@H](O)[C@@H]1O.O=C(O)C(F)(F)F: 36 µM
CCCCCCCCCCCCCCCC(=O)N1[C@H](C(=O)O)[C@@H]([C@H]2O[C@@H](n3ccc(=O)[nH]c3=O)[C@H](O)[C@@H]2O)O[C@@H]1CN: 740 µM
CCCCCCCCc1ccc(C(=O)N[C@H](C(=O)O)[C@H](O[C@@H]2O[C@H](CN)[C@@H](O)[C@H]2O)[C@H]2O[C@@H](n3ccc(=O)[nH]c3=O)[C@H](O)[C@@H]2O)cc1.O=C(O)C(F)(F)F: 256 µM

get_value(item= CCCCCCCCCCCCCCCC(=O)N1[C@H](C(=O)O)[C@@H]([C@H]2O[C@@H](n3ccc(=O)[nH]c3=O)[C@H](O)[C@@H]2O)O[C@@H]1CCCN , readout=IC50) returns 360 µM

* * *

# MIC listing for each entry below
- Tested on: Enterococcus faecium
- assay_info: Antibacterial activity against Enterococcus faecium ATCC 19434 after 20 hrs by two fold microdilution broth method
- Type: functional
- condition_label: ATCC 19434, 20 h
Respond with the bare value in mg/L.

Sample answers from the record:
CCCCCCCCCCCCCCCC(=O)N1[C@H](C(=O)OC)[C@@H]([C@H]2O[C@@H](n3ccc(=O)[nH]c3=O)[C@H](O)[C@@H]2O)O[C@@H]1CN.Cl: 32
CCCCCCCCCCCCCCCCNC(=O)[C@@H]1[C@@H]([C@H]2O[C@@H](n3ccc(=O)[nH]c3=O)[C@H](O)[C@@H]2O)O[C@H](CN)N1C(C)=O.Cl: 16
CCCCCCCCc1ccc(NC(=O)[C@@H](N)[C@H](O[C@@H]2O[C@H](CN)[C@@H](O)[C@H]2O)[C@H]2O[C@@H](n3ccc(=O)[nH]c3=O)[C@H](O)[C@@H]2O)cc1.O=C(O)C(F)(F)F: 32
CCCCCCCCCCCCCCCCNC(=O)[C@@H]1[C@@H]([C@H]2O[C@@H](n3ccc(=O)[nH]c3=O)[C@H](O)[C@@H]2O)O[C@H](CCCN)N1C(C)=O.Cl: 16
CCCCCCCCCCCCCCCC(=O)N1[C@H](C(=O)OC)[C@@H]([C@H]2O[C@@H](n3ccc(=O)[nH]c3=O)[C@H](O)[C@@H]2O)O[C@@H]1CCCN.Cl: 8

MIC for Enterococcus faecium with input CCCCCCCCCCCCCCCC(=O)N1[C@H](C(=O)OC)[C@@H]([C@H]2O[C@@H](n3ccc(=O)[nH]c3=O)[C@H](O)[C@@H]2O)O[C@@H]1CCN=[N+]=[N-] equals 64

* * *

- Test system: Staphylococcus aureus
- assay_info: Antibacterial activity against methicillin-resistant Staphylococcus aureus SR-3637 clinical isolate after 20 hrs by two fold microdilution broth method
- Type: functional
- condition_label: SR3637, 20 h
test_readout: MIC (µg/mL)
Enter your answer as a number in µg/mL; do not include the unit.

Some solved entries appear below for comparison.
CCCCCCCCCCCCCCCC(=O)N1[C@H](C(=O)OC)[C@@H]([C@H]2O[C@@H](n3ccc(=O)[nH]c3=O)[C@H](O)[C@@H]2O)O[C@@H]1CN.Cl: 13
CCCCCCCCCCCCCCCC(=O)O[C@H]1CN[C@@H]([C@H](O[C@@H]2O[C@H](CN)[C@@H](O)[C@H]2O)[C@H]2O[C@@H](n3ccc(=O)[nH]c3=O)[C@H](O)[C@@H]2O)C(=O)N(C)[C@@H]1C(=O)O: 0.5
CCCCCCCCCCCCCCCCNC(=O)[C@@H]1[C@@H]([C@H]2O[C@@H](n3ccc(=O)[nH]c3=O)[C@H](O)[C@@H]2O)O[C@H](CCCN)N1C(C)=O.Cl: 32

Item: CCCCCCCCCCCCCCCC(=O)N1[C@H](C(=O)OC(C)(C)C)[C@@H]([C@H]2O[C@@H](n3ccc(=O)[nH]c3=O)[C@H](O)[C@@H]2O)O[C@@H]1CCN | MIC: 16

* * *

- System: Enterococcus faecalis
- assay_info: Antibacterial activity against Enterococcus faecalis ATCC 29212 after 20 hrs by two fold microdilution broth method
- Type: functional
- condition_label: ATCC 29212, 20 h
test_readout: MIC (µg/mL)
Please respond with the number in µg/mL and leave the unit unwritten.

The examples below pair each entry with its known result.
CCCCCCCCCCCCCCCC(=O)N1[C@H](C(=O)OC)[C@@H]([C@H]2O[C@@H](n3ccc(=O)[nH]c3=O)[C@H](O)[C@@H]2O)O[C@@H]1CCN.Cl: 8
CCCCCCCCCCCCCCCC(=O)N1[C@H](C(=O)OC(C)(C)C)[C@@H]([C@H]2O[C@@H](n3ccc(=O)[nH]c3=O)[C@H](O)[C@@H]2O)O[C@@H]1CCN: 2
CCCCCCCCCCCCCCCC(=O)N1[C@H](C(=O)OC)[C@@H]([C@H]2O[C@@H](n3ccc(=O)[nH]c3=O)[C@H](O)[C@@H]2O)O[C@@H]1CCN=[N+]=[N-]: 16

# MIC of CCCCCCCCCCCCCCCC(=O)N1[C@H](C(=O)OC(C)(C)C)[C@@H]([C@H]2O[C@@H](n3ccc(=O)[nH]c3=O)[C@H](O)[C@@H]2O)O[C@@H]1CN = 4

Quick note, MIC for CCCCCCCCCCCCCCCC(=O)N1[C@H](C(=O)OC)[C@@H]([C@H]2O[C@@H](n3ccc(=O)[nH]c3=O)[C@H](O)[C@@H]2O)O[C@@H]1CCCN.Cl landed at 8

CCCCCCCCCCCCCCCCNC(=O)[C@@H]1[C@@H]([C@H]2O[C@@H](n3ccc(=O)[nH]c3=O)[C@H](O)[C@@H]2O)O[C@H](CCCN)N1C(C)=O.Cl has a reported MIC of 16

get_value(item= CCCCCCCCCCCCCCCC(=O)N1[C@H](C(=O)OC)[C@@H]([C@H]2O[C@@H](n3ccc(=O)[nH]c3=O)[C@H](O)[C@@H]2O)O[C@@H]1CCCN=[N+]=[N-] , readout=MIC) returns 32

* * *

- Tested on: Staphylococcus aureus
- assay_info: Antibacterial activity against methicillin-resistant Staphylococcus aureus SR-3637 clinical isolate after 20 hrs by two fold microdilution broth method
- Type: functional
- condition_label: SR3637, 20 h
test_readout: MIC

CCCCCCCCCCCCCCCC(=O)N1[C@H](C(=O)OC)[C@@H]([C@H]2O[C@@H](n3ccc(=O)[nH]c3=O)[C@H](O)[C@@H]2O)O[C@@H]1CCN=[N+]=[N-]: > 64 µg/mL
CCCCCCCCc1ccc(C(=O)N[C@H](C(=O)O)[C@H](O[C@@H]2O[C@H](CN)[C@@H](O)[C@H]2O)[C@H]2O[C@@H](n3ccc(=O)[nH]c3=O)[C@H](O)[C@@H]2O)cc1.O=C(O)C(F)(F)F: > 64 µg/mL

Moving on to another molecule below.
For reference, reported MIC for CCCCCCCCCCCCCCCC(=O)N1[C@H](C(=O)O)[C@@H]([C@H]2O[C@@H](n3ccc(=O)[nH]c3=O)[C@H](O)[C@@H]2O)O[C@@H]1CCN stands at > 64 µg/mL

* * *

- Test system: Enterococcus faecalis
- assay_info: Antibacterial activity against Enterococcus faecalis ATCC 29212 after 20 hrs by two fold microdilution broth method
- Format: functional
- condition_label: ATCC 29212, 20 h
Examples of molecules with documented MIC follow.

Field: example entries. Status: answers known.
CCCCCCCCCCCCNC(=O)N[C@H](C(=O)O)[C@H](O[C@@H]1O[C@H](CN)[C@@H](O)[C@H]1O)[C@H]1O[C@@H](n2ccc(=O)[nH]c2=O)[C@H](O)[C@@H]1O.O=C(O)C(F)(F)F: 64 µg/mL
CCCCCCCCc1ccc(NC(=O)N[C@H](C(=O)O)[C@H](O[C@@H]2O[C@H](CN)[C@@H](O)[C@H]2O)[C@@H]2O[C@@H](n3ccc(=O)[nH]c3=O)[C@H](O)[C@@H]2O)cc1.O=C(O)C(F)(F)F: 64 µg/mL
CCCCCCCCc1ccc(NC(=O)[C@@H](N)[C@H](O[C@@H]2O[C@H](CN)[C@@H](O)[C@H]2O)[C@H]2O[C@@H](n3ccc(=O)[nH]c3=O)[C@H](O)[C@@H]2O)cc1.O=C(O)C(F)(F)F: 16 µg/mL
CCCCCCCCCCCCCCCC(=O)N1[C@H](C(=O)O)[C@@H]([C@H]2O[C@@H](n3ccc(=O)[nH]c3=O)[C@H](O)[C@@H]2O)O[C@@H]1CCCN: > 64 µg/mL
CCCCCCCCCCCC(=O)N[C@H](C(=O)O)[C@H](O[C@@H]1O[C@H](CN)[C@@H](O)[C@H]1O)[C@H]1O[C@@H](n2ccc(=O)[nH]c2=O)[C@H](O)[C@@H]1O.O=C(O)C(F)(F)F: > 64 µg/mL

Tested system Enterococcus faecalis; MIC recorded for CCCCCCCCCCCCCCCC(=O)N1[C@H](C(=O)O)[C@@H]([C@H]2O[C@@H](n3ccc(=O)[nH]c3=O)[C@H](O)[C@@H]2O)O[C@@H]1CCN was > 64 µg/mL

Given the molecule CCCCCCCCCCCCCCCCNC(=O)[C@@H]1[C@@H]([C@H]2O[C@@H](n3ccc(=O)[nH]c3=O)[C@H](O)[C@@H]2O)O[C@H](CN)N1C(C)=O.Cl and test system Enterococcus faecalis, the measured MIC is 32 µg/mL

Field MIC (system: Enterococcus faecalis) for entry CN[C@H](CC(C)C)C(=O)N[C@H]1C(=O)N[C@@H](CC(N)=O)C(=O)N[C@H]2C(=O)N[C@H]3C(=O)N[C@H](C(=O)N[C@H](C(=O)O)c4cc(O)cc(O)c4-c4cc3ccc4O)[C@H](O)c3ccc(c(Cl)c3)Oc3cc2cc(c3O[C@@H]2O[C@H](CO)[C@@H](O)[C@H](O)[C@H]2O[C@H]2C[C@](C)(N)[C@H](O)[C@H](C)O2)Oc2ccc(cc2Cl)[C@H]1O = 1 µg/mL

# CCCCCCCCCCCCCCCC(=O)N1[C@H](C(=O)O)[C@@H]([C@H]2O[C@@H](n3ccc(=O)[nH]c3=O)[C@H](O)[C@@H]2O)O[C@@H]1CN with Enterococcus faecalis: MIC is > 64 µg/mL

Log: Enterococcus faecalis, molecule CCCCCCCCCCCCCCCC(=O)N1[C@H](C(=O)OC)[C@@H]([C@H]2O[C@@H](n3ccc(=O)[nH]c3=O)[C@H](O)[C@@H]2O)O[C@@H]1CN.Cl , MIC = 32 µg/mL

Record CCCCCCCCc1ccc(C(=O)N[C@H](C(=O)O)[C@H](O[C@@H]2O[C@H](CN)[C@@H](O)[C@H]2O)[C@H]2O[C@@H](n3ccc(=O)[nH]c3=O)[C@H](O)[C@@H]2O)cc1.O=C(O)C(F)(F)F has Enterococcus faecalis MIC equal to 64 µg/mL

Observed MIC, Enterococcus faecalis, CCCCCCCCCCCCCCCC(=O)O[C@H]1CN[C@@H]([C@H](O[C@@H]2O[C@H](CN)[C@@H](O)[C@H]2O)[C@H]2O[C@@H](n3ccc(=O)[nH]c3=O)[C@H](O)[C@@H]2O)C(=O)N(C)[C@@H]1C(=O)O : 0.5 µg/mL

Readout MIC for CCCCCCCCCCCCNC(=O)[C@@H](N)[C@H](O[C@@H]1O[C@H](CN)[C@@H](O)[C@H]1O)[C@H]1O[C@@H](n2ccc(=O)[nH]c2=O)[C@H](O)[C@@H]1O.O=C(O)C(F)(F)F , test system Enterococcus faecalis, was 16 µg/mL

Short answer on Enterococcus faecalis for CCCCCCCCCCCCCCCCNC(=O)[C@@H]1[C@@H]([C@H]2O[C@@H](n3ccc(=O)[nH]c3=O)[C@H](O)[C@@H]2O)O[C@H](CCN)N1C(C)=O.Cl , MIC: 16 µg/mL
